molecular target: Recombinant human MAO-B (Homo sapiens); assay: MAO-B inhibition enzyme assay
Sequence (P27338 whole entry): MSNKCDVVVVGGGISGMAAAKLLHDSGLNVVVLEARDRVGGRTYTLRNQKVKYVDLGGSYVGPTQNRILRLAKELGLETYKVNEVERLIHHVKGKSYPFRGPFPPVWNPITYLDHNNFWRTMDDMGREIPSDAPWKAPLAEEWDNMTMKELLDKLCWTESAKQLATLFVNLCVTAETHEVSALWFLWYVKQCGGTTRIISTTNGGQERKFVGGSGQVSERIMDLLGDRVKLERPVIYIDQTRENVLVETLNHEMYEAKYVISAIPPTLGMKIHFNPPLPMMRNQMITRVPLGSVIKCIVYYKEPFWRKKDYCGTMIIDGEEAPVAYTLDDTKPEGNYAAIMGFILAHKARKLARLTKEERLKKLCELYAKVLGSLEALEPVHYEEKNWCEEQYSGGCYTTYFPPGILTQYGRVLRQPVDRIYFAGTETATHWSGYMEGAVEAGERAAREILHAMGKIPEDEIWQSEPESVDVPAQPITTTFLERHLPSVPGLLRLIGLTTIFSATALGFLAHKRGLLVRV
pIC50: −log10 of the molar value.
Binary classification by pIC50, with 6 as an inclusive lower bound for fulfilled; all other cases are not fulfilled.

molecule="O=C(NN=Cc1ccc(Cl)cc1)c1ccc(Cl)cc1 [ACH4]" assigned_class=fulfilled
molecule="O=C(NN=Cc1ccc(Br)cc1)c1ccccc1 [ACH2]" assigned_class="not fulfilled"
molecule="O=C(NN=Cc1ccc(Cl)cc1)c1ccc(Br)cc1 [ACH8]" assigned_class=fulfilled
molecule="O=C(NN=Cc1ccc(F)cc1)c1ccccc1 [ACH3]" assigned_class=fulfilled
molecule="O=C(NN=Cc1ccc(Br)cc1)c1ccc(F)cc1 [ACH13]" assigned_class=fulfilled
molecule="O=C(NN=Cc1ccc(F)cc1)c1ccc(Cl)cc1 [ACH6]" assigned_class="not fulfilled"
molecule="O=C(NN=Cc1ccc(Br)cc1)c1ccc(Cl)cc1 [ACH5]" assigned_class="not fulfilled"
molecule="O=C(NN=Cc1ccccc1)c1ccc(Br)cc1 [ACH11]" assigned_class="not fulfilled"
